Reference for the values: patent US20240226343A1

The compounds listed here are annotated with their Ki.
biological target: hNPY1R (Homo sapiens, UniProt P25929); construct: SK-N-MC cells endogenously expressing the NPY1R receptor; endogenous in cells; host or cells: SK-N-MC cells (crude membrane fractions); assay: NPY1R binding assay: SK-N-MC membranes, [125I]-Peptide YY (human) competition; settings: data obtained after 60 minutes at 37° C.; SK-N-MC membranes; [125I]-Peptide YY 0.05 nM; read-out: hNPY1R binding Ki* †

CCC(=O)NCCNC(=O)/N=C(/N)NCCC[C@@H](NC(=O)C(c1ccccc1)c1cccc(OCCCCNC(=O)[C@H](N)CCCCNC(=O)CN2CCN(CC(=O)O)CCN(CC(=O)O)CCN(CC(=O)O)CC2)c1)C(=O)NCc1ccc(O)cc1 (single isomer, unassigned) [Compound 109A]; < 0.01 µM
CCC(=O)NCCNC(=O)/N=C(/N)NCCC[C@@H](NC(=O)C(c1ccccc1)c1cccc(OCCOCCOCCOCCOCCNC(=O)CN2CCN(CC(=O)O)CCN(CC(=O)O)CCN(CC(=O)O)CC2)c1)C(=O)NCc1ccc(CNC(N)=O)cc1 (single isomer, unassigned) [Compound 114A]; 0.01 to 0.1 µM

Inquiry: Which Ki is listed for CCC(=O)NCCNC(=O)/N=C(/N)NCCC[C@@H](NC(=O)C(c1ccccc1)c1cccc(OCCOCCNC(=O)CN2CCN(CC(=O)O)CCN(CC(=O)O)CCN(CC(=O)O)CC2)c1)C(=O)NCc1ccc(O)cc1 (stereo partly shown) [Compound 106] ?
Reply text: < 0.01 µM

Inquiry: Likewise for CCC(=O)NCCNC(=O)/N=C(/N)NCCC[C@@H](NC(=O)C(c1ccccc1)c1cccc(OCCCCNC(=O)CCOCCNC(=O)CN2CCN(CC(=O)O)CCN(CC(=O)O)CCN(CC(=O)O)CC2)c1)C(=O)NCc1ccc(O)cc1 (single isomer, unassigned) [Compound 108A] ?
Reply text: < 0.01 µM

###

Target: hNPY1R (Homo sapiens, UniProt P25929)
Construct: SK-N-MC cells endogenously expressing the NPY1R receptor; endogenous in cells; host or cells: SK-N-MC cells (crude membrane fractions)
Experiment: NPY1R binding assay: SK-N-MC membranes, [125I]-Peptide YY (human) competition
Conditions: data obtained after 60 minutes at 37° C.; SK-N-MC membranes; [125I]-Peptide YY 0.05 nM; read-out: hNPY1R binding Ki* †
Experimental: Crude membrane fractions are prepared from SK-N-MC cells endogenously expressing the NPY1R receptor. The cells are grown to 85-100% confluence on standard tissue culture dishes in Eagle's Minimum Essential Medium supplemented with 10% dialyzed FBS. […] […] Assay plates are read using a Top Count NXT and Ki values for compounds are determined using a GraphPad Prism 6 non-linear regression analysis.
pKi: −log10 of the molar value.
Readout Label: pKi

CCC(=O)NCCNC(=O)/N=C(/N)NCCC[C@@H](NC(=O)C(c1ccccc1)c1ccc(NCCCNC(=O)CCOCCOCCNC(=O)CN2CCN(CC(=O)O)CCN(CC(=O)O)CCN(CC(=O)O)CC2)cc1)C(=O)NCc1ccc(O)cc1 (single isomer, unassigned) [Compound 103B]; > 8.00
CCC(=O)NCCNC(=O)/N=C(/N)NCCC[C@@H](NC(=O)C(c1ccccc1)c1cccc(OCCCCNC(=O)CNC(=O)[C@@H](CC(N)=O)NC(=O)CN2CCN(CC(=O)O)CCN(CC(=O)O)CCN(CC(=O)O)CC2)c1)C(=O)NCc1ccc(O)cc1 (single isomer, unassigned) [Compound 112B]; > 8.00
CCC(=O)NCCNC(=O)/N=C(/N)NCCC[C@@H](NC(=O)C(c1ccccc1)c1cccc(OCCCCNC(=O)CC[C@@H](NC(=O)CN2CCN(CC(=O)O)CCN(CC(=O)O)CCN(CC(=O)O)CC2)C(=O)O)c1)C(=O)NCc1ccc(O)cc1 (single isomer, unassigned) [Compound 110B]; > 8.00
CCC(=O)NCCNC(=O)/N=C(/N)NCCC[C@@H](NC(=O)C(c1ccccc1)c1ccc(NCCCNc2c(NCCNC(=O)CN3CCN(CC(=O)O)CCN(CC(=O)O)CCN(CC(=O)O)CC3)c(=O)c2=O)cc1)C(=O)NCc1ccc(O)cc1 (single isomer, unassigned) [Compound 124A]; 7.00 to 8.00
CCC(=O)NCCNC(=O)/N=C(/N)NCCC[C@@H](NC(=O)C(c1ccccc1)c1cccc(OCCCCNC(=O)CCC(=O)N(CC(=O)O)C2CCN(C(=O)CN3CCN(CC(=O)O)CCN(CC(=O)O)CCN(CC(=O)O)CC3)CC2)c1)C(=O)NCc1ccc(O)cc1 (single isomer, unassigned) [Compound 117A]; 7.00 to 8.00
N=C(N)NCCC[C@@H](NC(=O)C(c1ccccc1)c1cccc(OCCOCCOCCOCCOCCNC(=O)CN2CCN(CC(=O)O)CCN(CC(=O)O)CCN(CC(=O)O)CC2)c1)C(=O)NCc1ccc(CNC(N)=O)cc1 (stereo partly shown) [Compound 113A]; < 7.00

Please turn your attention to the following entry.
Inquiry: Which pKi is listed for CCC(=O)NCCNC(=O)/N=C(/N)NCCC[C@@H](NC(=O)C(c1ccccc1)c1ccc(NC(=O)CCOCCOCCOCCOCCNC(=O)CN2CCN(CC(=O)O)CCN(CC(=O)O)CCN(CC(=O)O)CC2)cc1)C(=O)NCc1ccc(O)cc1 (single isomer, unassigned) [Compound 102A] ?
Reply text: 7.00 to 8.00

###

target: hNPY1R (Homo sapiens); construct: SK-N-MC cells endogenously expressing the NPY1R receptor; endogenous in cells; host or cells: SK-N-MC cells (crude membrane fractions); assay: NPY1R binding assay: SK-N-MC membranes, [125I]-Peptide YY (human) competition; details: data obtained after 60 minutes at 37° C.; SK-N-MC membranes; [125I]-Peptide YY 0.05 nM; read-out: hNPY1R binding Ki* †
Readout Label: Ki

# annotated cases, reported Ki shown
CCC(=O)NCCNC(=O)/N=C(/N)NCCC[C@@H](NC(=O)C(c1ccccc1)c1cccc(OCCCCNC(=O)[C@H](CS(=O)(=O)O)NC(=O)CN2CCN(CC(=O)O)CCN(CC(=O)O)CCN(CC(=O)O)CC2)c1)C(=O)NCc1ccc(O)cc1 (single isomer, unassigned) [Compound 107B]; 10 to 100 nM
CCC(=O)NCCNC(=O)/N=C(/N)NCCC[C@@H](NC(=O)C(c1ccccc1)c1cccc(OCCOCCOCCOCCOCCNC(=O)CN2CCN(CC(=O)O)CCN(CC(=O)O)CCN(CC(=O)O)CC2)c1)C(=O)NCc1ccc(CNC(N)=O)cc1 (single isomer, unassigned) [Compound 114B]; 10 to 100 nM

Inquiry: Which Ki is listed for CCC(=O)NCCNC(=O)/N=C(/N)NCCC[C@@H](NC(=O)C(c1ccccc1)c1cccc(OCCOCCOCCOCCOCCNC(=O)CN2CCN(CC(=O)O)CCN(CC(=O)O)CCN(CC(=O)O)CC2)c1)C(=O)NCc1ccc(O)cc1 (single isomer, unassigned) [Compound 101B] ?
Reply text: < 10 nM

Inquiry: Likewise for CCC(=O)NCCNC(=O)/N=C(/N)NCCC[C@@H](NC(=O)C(c1ccccc1)c1cccc(OCCOCCOCCOCCOCCNC(=O)CN2CCN(CC(=O)O)CCN(CC(=O)O)CCN(CC(=O)O)CC2)c1)C(=O)NCc1ccc(O)cc1 (single isomer, unassigned) [Compound 101A] ?
Reply text: < 10 nM

###

Biological target: hNPY1R (Homo sapiens)
Construct: SK-N-MC cells endogenously expressing the NPY1R receptor; endogenous in cells; host or cells: SK-N-MC cells (crude membrane fractions)
Sequence (P25929 1-384): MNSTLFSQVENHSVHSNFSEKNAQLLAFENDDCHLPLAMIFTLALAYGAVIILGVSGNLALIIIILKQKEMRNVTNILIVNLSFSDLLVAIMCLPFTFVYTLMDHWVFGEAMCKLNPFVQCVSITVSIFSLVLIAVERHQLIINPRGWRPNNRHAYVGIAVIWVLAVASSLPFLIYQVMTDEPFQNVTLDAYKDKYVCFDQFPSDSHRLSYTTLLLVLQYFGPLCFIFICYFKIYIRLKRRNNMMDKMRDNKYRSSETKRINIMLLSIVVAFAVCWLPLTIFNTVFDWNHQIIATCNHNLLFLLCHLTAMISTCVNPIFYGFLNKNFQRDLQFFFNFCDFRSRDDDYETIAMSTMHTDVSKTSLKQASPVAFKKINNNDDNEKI
Assay: NPY1R binding assay: SK-N-MC membranes, [125I]-Peptide YY (human) competition
Settings: data obtained after 60 minutes at 37° C.; SK-N-MC membranes; [125I]-Peptide YY 0.05 nM; read-out: hNPY1R binding Ki* †
Readout Label: Ki

# annotated cases, reported Ki shown
CCC(=O)NCCNC(=O)/N=C(/N)NCCC[C@@H](NC(=O)C(c1ccccc1)c1cccc(OCCCCNC(=O)CCC(NC(=O)CN2CCN(CC(=O)O)CCN(CC(=O)O)CCN(CC(=O)O)CC2)C(=O)O)c1)C(=O)NCc1ccc(O)cc1 (single isomer, unassigned) [Compound 110A]; 10 to 100 nM
CCC(=O)NCCNC(=O)/N=C(/N)NCCC[C@@H](NC(=O)C(c1ccccc1)c1cccc(OCCCCNc2c(NCCNC(=O)CN3CCN(CC(=O)O)CCN(CC(=O)O)CCN(CC(=O)O)CC3)c(=O)c2=O)c1)C(=O)NCc1ccc(O)cc1 (single isomer, unassigned) [Compound 111B]; < 10 nM
CCC(=O)NCCNC(=O)/N=C(/N)NCCC[C@@H](NC(=O)C(c1ccccc1)c1ccc(NC(=O)CCOCCOCCOCCOCCNC(=O)CN2CCN(CC(=O)O)CCN(CC(=O)O)CCN(CC(=O)O)CC2)cc1)C(=O)NCc1ccc(O)cc1 (single isomer, unassigned) [Compound 102B]; 10 to 100 nM

Inquiry: Which Ki is listed for CCC(=O)NCCNC(=O)/N=C(/N)NCCC[C@@H](NC(=O)C(c1ccccc1)c1cccc(OCCOCCOCCOCCNC(=O)CN2CCN(CC(=O)O)CCN(CC(=O)O)CCN(CC(=O)O)CC2)c1)C(=O)NCc1ccc(O)cc1 (stereo partly shown) ?
Reply text: < 10 nM
